Target or system: T1, dNELF-E(mut) (Drosophila, UniProt P92204 1-280, N173E;K174D;V175M;E177P;D178T;F179L)
T1 sequence: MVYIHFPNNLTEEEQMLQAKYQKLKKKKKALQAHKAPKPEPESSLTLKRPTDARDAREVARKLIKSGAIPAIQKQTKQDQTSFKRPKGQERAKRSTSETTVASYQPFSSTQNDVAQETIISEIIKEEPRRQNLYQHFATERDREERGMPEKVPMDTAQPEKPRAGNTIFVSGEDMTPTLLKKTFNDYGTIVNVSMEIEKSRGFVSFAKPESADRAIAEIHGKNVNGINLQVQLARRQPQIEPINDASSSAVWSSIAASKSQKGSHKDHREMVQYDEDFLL
Test protocol: F-EMSA; 10 mM HEPES-NaOH pH 7.5, 100 mM NaCl, 25 mM KCl, 1 mM MgCl2, 0.02% Tween-20, 0.01% IGEPAL CA-630, 10 µg/ml yeast tRNA; 2 nM RNA, 0-2000 nM protein, 1-2 h, binding temperature not stated; gel 5% acrylamide 0.5X TBE at 4 °C
Condition details: protein: recombinant; tags: N-terminal His6 (pHIS-parallel1); label: 3' fluorescein (5-thiosemicarbazide); putative K-turn stem-loop
Assay metric: Kd (nM)

>>> df
                                     binder  unit_abbrev  reported_value
0  GGCCCCACUGAGGAUGCCCACGGGCGAUUGGGGCCA (structured_RNA) [Napt1min]           nM             350
